B1: TPR t1 (parent)
chain: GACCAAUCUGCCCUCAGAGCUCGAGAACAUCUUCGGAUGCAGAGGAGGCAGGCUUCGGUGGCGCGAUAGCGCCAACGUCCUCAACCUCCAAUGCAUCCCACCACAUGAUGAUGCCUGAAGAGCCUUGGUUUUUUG

Variants of: B1
Experiment notes: polymerase ribozyme fitness, log enrichment relative to wild type (log ratio); higher = more active; in vitro selection for triplet polymerase activity
Classification field: enter YES for polymerase ribozyme fitness (log ratio) values not below -2, NO for values below it.

A selection of reference data follows.
INSERT INTO results (mutant, category_label) VALUES
  ('U14G C49G', 'NO'),
  ('C11U C15A A16C U33G C49G G60A G65A C79A A90C U109A', 'NO'),
  ('C20G C123A', 'NO');

Asked: Reported polymerase ribozyme fitness (log ratio) reaches at least -2 for C11U A29C ?
Given back: NO

Asked: Reported polymerase ribozyme fitness (log ratio) reaches at least -2 for C12G U14G G52C G61A C82A C88A A118U ?
Given back: NO

Asked: Reported polymerase ribozyme fitness (log ratio) reaches at least -2 for A26U G52A U112A U131C ?
Given back: NO

Asked: Reported polymerase ribozyme fitness (log ratio) reaches at least -2 for C73U C88U U92G ?
Given back: NO

Asked: Reported polymerase ribozyme fitness (log ratio) reaches at least -2 for C11U C13U A50C A103C U125A ?
Given back: NO
